System: biotinyl-Met-oxazolone
Assay: self-aminoacylation, catalytic enhancement (BMO) (fold over background); higher = more active; k-Seq, kA / k0A0; sequences stand for … in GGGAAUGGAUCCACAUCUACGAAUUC…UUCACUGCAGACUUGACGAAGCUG
Variants at the floor of the assay were thinned out.
Overview of recorded self-aminoacylation for various sequences

[
  {
    "querySequence": "AUUACCGUGGUCAUCGUGUGA [Fam2.1 aminoacylation ribozyme variant]",
    "self-aminoacylation": 1.64
  },
  {
    "querySequence": "AGUACCCUGGUCCUCGAGUGA [Fam2.1 aminoacylation ribozyme variant]",
    "self-aminoacylation": 4.14
  },
  {
    "querySequence": "AGUCACCUAGGUCAUCGCGUG [Fam2.2 aminoacylation ribozyme variant]",
    "self-aminoacylation": 14.4
  },
  {
    "querySequence": "CUUCACGUAGGUCAUCGGGUG [Fam2.2 aminoacylation ribozyme variant]",
    "self-aminoacylation": 4.38
  },
  {
    "querySequence": "AAGUUUGCUAAUAGUCCCCAG [Fam3.1 aminoacylation ribozyme variant]",
    "self-aminoacylation": 1.01
  },
  {
    "querySequence": "AUUCACCUAGGUCAACGGGUC [Fam2.2 aminoacylation ribozyme variant]",
    "self-aminoacylation": 0.915
  },
  {
    "querySequence": "AUUACCCUGGUCAUCGUAUGA [Fam2.1 aminoacylation ribozyme variant]",
    "self-aminoacylation": 0.984
  },
  {
    "querySequence": "AUUCACCUCGGUCAUAGGGUG [Fam2.2 aminoacylation ribozyme variant]",
    "self-aminoacylation": 1.41
  },
  {
    "querySequence": "CACUUUGCUAAUAGUCGCAAG [Fam3.1 aminoacylation ribozyme variant]",
    "self-aminoacylation": 1.32
  }
]

----------
Tested on: biotinyl-Ile-oxazolone
Experiment: self-aminoacylation, catalytic enhancement (BIO) (fold over background); higher = more active; k-Seq, kA / k0A0; sequences stand for … in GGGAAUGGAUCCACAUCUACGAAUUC…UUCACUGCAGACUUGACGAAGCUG
Variants at the floor of the assay were thinned out.
Overview of recorded self-aminoacylation for various sequences

[
  {
    "querySequence": "CUACUUCAAACAAUCGCUCCG [Fam1A.1 aminoacylation ribozyme variant]",
    "systemUnderTest": "biotinyl-Ile-oxazolone",
    "self-aminoacylation": 0.768
  },
  {
    "querySequence": "CCACAGUUCAAGCAAUGGGUC [Fam1B.1 aminoacylation ribozyme variant]",
    "systemUnderTest": "biotinyl-Ile-oxazolone",
    "self-aminoacylation": 1.04
  },
  {
    "querySequence": "AAGUCUGCUAAUCGUCGCAAG [Fam3.1 aminoacylation ribozyme variant]",
    "systemUnderTest": "biotinyl-Ile-oxazolone",
    "self-aminoacylation": 0.996
  },
  {
    "querySequence": "AAGUUAGCUAAUAGUCGCAUG [Fam3.1 aminoacylation ribozyme variant]",
    "systemUnderTest": "biotinyl-Ile-oxazolone",
    "self-aminoacylation": 1.83
  },
  {
    "querySequence": "AAGUUUGCUGUUAGUCGCAAG [Fam3.1 aminoacylation ribozyme variant]",
    "systemUnderTest": "biotinyl-Ile-oxazolone",
    "self-aminoacylation": 0.911
  },
  {
    "querySequence": "AUUACCCCGUUCAUCGAGUGA [Fam2.1 aminoacylation ribozyme variant]",
    "systemUnderTest": "biotinyl-Ile-oxazolone",
    "self-aminoacylation": 2.28
  },
  {
    "querySequence": "CGACUUCAUACAAUCGGUCUG [Fam1A.1 aminoacylation ribozyme variant]",
    "systemUnderTest": "biotinyl-Ile-oxazolone",
    "self-aminoacylation": 0.939
  },
  {
    "querySequence": "AUUCACCUUGGUCAGCGGGUG [Fam2.2 aminoacylation ribozyme variant]",
    "systemUnderTest": "biotinyl-Ile-oxazolone",
    "self-aminoacylation": 2.71
  },
  {
    "querySequence": "AUUAUCCUGGUCAUCGCGUGA [Fam2.1 aminoacylation ribozyme variant]",
    "systemUnderTest": "biotinyl-Ile-oxazolone",
    "self-aminoacylation": 6.96
  }
]
